Assay: Toxicity in Balb/c mouse assessed as survival rate at 20 to 40 mg/kg, ip measured after 7 days
Format: organism-based
Details: in vivo, dose 20-40 mg/kg, time 7 day

[
  {
    "smiles_record": "CCCCCCCCCCCC(=O)N[C@H](CCCNC(=N)N)C(=O)N[C@H](CCCNC(=N)N)C(=O)N[C@H](Cc1c[nH]c2ccccc12)C(=O)O",
    "survival at 168 h": "100%"
  }
]

###

System: Staphylococcus aureus
Test: Antibacterial activity against methicillin-resistant Staphylococcus aureus ATCC 33591 incubated for 18 to 24 hrs in presence of 1 mg/ml of chymotrypsin by broth microdilution method
Format: functional
Settings: time 18-24 hrs

[
  {
    "smiles_record": "CCCCCCCCCCCC(=O)N[C@@H](CCCNC(=N)N)C(=O)N[C@H](CCCNC(=N)N)C(=O)N[C@@H](Cc1c[nH]c2ccccc12)C(=O)O",
    "assayed_system": "Staphylococcus aureus",
    "readout_units": "µM",
    "reported_relation": "=",
    "MIC": 32
  },
  {
    "smiles_record": "CCCCCCCCCCCC(=O)N[C@H](CCCNC(=N)N)C(=O)N[C@@H](CCCNC(=N)N)C(=O)N[C@H](Cc1c[nH]c2ccccc12)C(=O)O",
    "assayed_system": "Staphylococcus aureus",
    "readout_units": "µM",
    "reported_relation": "=",
    "MIC": 8
  },
  {
    "smiles_record": "CCCCCCCCCCCC(=O)N[C@H](CCCNC(=N)N)C(=O)N[C@H](CCCNC(=N)N)C(=O)N[C@H](Cc1c[nH]c2ccccc12)C(=O)O",
    "assayed_system": "Staphylococcus aureus",
    "readout_units": "µM",
    "reported_relation": "=",
    "MIC": 4
  },
  {
    "smiles_record": "CCCCCCCCCCCC(=O)N[C@@H](CCCNC(=N)N)C(=O)N[C@H](CCCNC(=N)N)C(=O)N[C@H](Cc1c[nH]c2ccccc12)C(=O)O",
    "assayed_system": "Staphylococcus aureus",
    "readout_units": "µM",
    "reported_relation": "=",
    "MIC": 8
  },
  {
    "smiles_record": "CCCCCCCCCCCC(=O)N[C@@H](CCCNC(=N)N)C(=O)N[C@@H](CCCNC(=N)N)C(=O)N[C@@H](Cc1c[nH]c2ccccc12)C(=O)O",
    "assayed_system": "Staphylococcus aureus",
    "readout_units": "µM",
    "reported_relation": ">",
    "MIC": 128
  },
  {
    "smiles_record": "CCCCCCCCCCCC(=O)N[C@H](CCCNC(=N)N)C(=O)N[C@H](CCCNC(=N)N)C(=O)N[C@@H](Cc1c[nH]c2ccccc12)C(=O)O",
    "assayed_system": "Staphylococcus aureus",
    "readout_units": "µM",
    "reported_relation": "=",
    "MIC": 64
  },
  {
    "smiles_record": "CCCCCCCCCCCC(=O)N[C@H](CCCNC(=N)N)C(=O)N[C@@H](CCCNC(=N)N)C(=O)N[C@@H](Cc1c[nH]c2ccccc12)C(=O)O",
    "assayed_system": "Staphylococcus aureus",
    "readout_units": "µM",
    "reported_relation": "=",
    "MIC": 32
  },
  {
    "smiles_record": "CCCCCCCCCCCC(=O)N[C@@H](CCCNC(=N)N)C(=O)N[C@@H](CCCNC(=N)N)C(=O)N[C@H](Cc1c[nH]c2ccccc12)C(=O)O",
    "assayed_system": "Staphylococcus aureus",
    "readout_units": "µM",
    "reported_relation": ">",
    "MIC": 128
  }
]
